tested on: Human hair (Alkinco 6634); experiment: HP-DSC keratin melting point of permanent-waved hair after 1% aqueous active substance, Alkinco 6634; settings: treated 10 mins. with 1% aqueous solution of active substance, rinsed, dried
Consider the following compounds; for each one, report its Keratin melting point for Alkinco 6634.
Record the value in °C, omitting the unit from your answer.

// Keratin melting point for Alkinco 6634 lookup, key: "Cc1ncc(CO)c(CN)c1O"
152.2

// Keratin melting point for Alkinco 6634 lookup, key: "Cc1ncc(CO)c(CO)c1O"
152.1

// Keratin melting point for Alkinco 6634 lookup, key: "Cc1ncc(CO)c(C=O)c1O"
152

// Keratin melting point for Alkinco 6634 lookup, key: Cc1ncc(COP(=O)(O)O)c(C=O)c1O [Pyridoxal-5-phosphate, pyridoxal-5′-phosphate]
152.7
